SYSTEM_TESTED: Prostaglandin G/H synthase 1 (Ovis aries, UniProt P05979)
Sequence (P05979 whole entry): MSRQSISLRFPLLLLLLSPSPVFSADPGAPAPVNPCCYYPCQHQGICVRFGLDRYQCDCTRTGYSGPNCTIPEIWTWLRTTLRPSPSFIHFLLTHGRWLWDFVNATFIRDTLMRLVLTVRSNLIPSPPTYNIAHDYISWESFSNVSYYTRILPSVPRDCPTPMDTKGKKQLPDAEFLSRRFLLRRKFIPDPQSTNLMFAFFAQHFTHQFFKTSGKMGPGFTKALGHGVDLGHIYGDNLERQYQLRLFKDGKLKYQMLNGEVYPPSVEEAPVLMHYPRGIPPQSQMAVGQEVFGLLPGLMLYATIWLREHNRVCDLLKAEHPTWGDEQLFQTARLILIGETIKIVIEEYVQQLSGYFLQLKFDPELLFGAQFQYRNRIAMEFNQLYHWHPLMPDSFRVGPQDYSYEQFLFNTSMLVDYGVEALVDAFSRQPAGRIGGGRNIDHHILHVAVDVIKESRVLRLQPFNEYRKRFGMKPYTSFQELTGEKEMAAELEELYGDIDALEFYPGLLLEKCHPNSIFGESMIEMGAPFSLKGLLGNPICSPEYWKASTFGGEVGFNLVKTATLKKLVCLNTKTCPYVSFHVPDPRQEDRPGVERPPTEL
READOUT: IC50 (µM)

1) CC(C)Cc1ccc(C(C)C(=O)O)cc1[N+](=O)[O-] (configuration not stated): 59
2) CC(C(=O)N(C)C)c1ccc(-c2ccccc2)c(F)c1 (configuration not stated): 215
3) COC(=O)C(C)c1ccc(-c2ccccc2)cc1 (configuration not stated): 28.5
4) CNC(=O)C(C)c1ccc(-c2ccccc2)c(F)c1 (configuration not stated): 24
5) CC(C(N)=O)c1ccc(-c2ccccc2)cc1 (configuration not stated): 64.5

(1) CC(C)Cc1ccc(C(C)C(=O)O)cc1Br (configuration not stated)
(2) CC(C(=O)N(C)C)c1ccc(-c2ccccc2)cc1 (configuration not stated)
For this pair, 1 and 2 , which shows a numerically higher IC50? Selection: enter the item's label.
2
(2: 4.8 µM, 1: 0.11 µM)

# credit: ChEMBL document CHEMBL1137939
